# TARGET UNDER TEST: AgFus1
# PROTOCOL DETAILS: SPOT peptide array binding signal intensity (averaged, normalized) (arbitrary units (background-subtracted, floor 0; scale differs between SH3 domains)); higher = stronger binding of the SH3 domain to the peptide
Entries and their SPOT peptide array binding signal intensity values follow.
READOUT KIND: SPOT peptide array binding signal intensity

>>> reported("AIPPPVPNRPGGTTN")
"≤ 0"
>>> reported("NNFYRPLLRSVLVLL")
246
>>> reported("LKPPIGRPPKFPKSP")
"≤ 0"
>>> reported("VNFRRIPTGPDSPPT")
45
>>> reported("IHTRRPSSTSQYLIR")
406
>>> reported("IKKRNKIRLPSGSPE")
279
>>> reported("TKPTPPPKPSHLKPK")
"≤ 0"
